# Target Or System: panel of 442 kinases (Homo sapiens)
# Construct: purchased Ambit Biosciences (scanMAXX KINOMEscan)
# Sequence (Q9Y5S2 whole entry): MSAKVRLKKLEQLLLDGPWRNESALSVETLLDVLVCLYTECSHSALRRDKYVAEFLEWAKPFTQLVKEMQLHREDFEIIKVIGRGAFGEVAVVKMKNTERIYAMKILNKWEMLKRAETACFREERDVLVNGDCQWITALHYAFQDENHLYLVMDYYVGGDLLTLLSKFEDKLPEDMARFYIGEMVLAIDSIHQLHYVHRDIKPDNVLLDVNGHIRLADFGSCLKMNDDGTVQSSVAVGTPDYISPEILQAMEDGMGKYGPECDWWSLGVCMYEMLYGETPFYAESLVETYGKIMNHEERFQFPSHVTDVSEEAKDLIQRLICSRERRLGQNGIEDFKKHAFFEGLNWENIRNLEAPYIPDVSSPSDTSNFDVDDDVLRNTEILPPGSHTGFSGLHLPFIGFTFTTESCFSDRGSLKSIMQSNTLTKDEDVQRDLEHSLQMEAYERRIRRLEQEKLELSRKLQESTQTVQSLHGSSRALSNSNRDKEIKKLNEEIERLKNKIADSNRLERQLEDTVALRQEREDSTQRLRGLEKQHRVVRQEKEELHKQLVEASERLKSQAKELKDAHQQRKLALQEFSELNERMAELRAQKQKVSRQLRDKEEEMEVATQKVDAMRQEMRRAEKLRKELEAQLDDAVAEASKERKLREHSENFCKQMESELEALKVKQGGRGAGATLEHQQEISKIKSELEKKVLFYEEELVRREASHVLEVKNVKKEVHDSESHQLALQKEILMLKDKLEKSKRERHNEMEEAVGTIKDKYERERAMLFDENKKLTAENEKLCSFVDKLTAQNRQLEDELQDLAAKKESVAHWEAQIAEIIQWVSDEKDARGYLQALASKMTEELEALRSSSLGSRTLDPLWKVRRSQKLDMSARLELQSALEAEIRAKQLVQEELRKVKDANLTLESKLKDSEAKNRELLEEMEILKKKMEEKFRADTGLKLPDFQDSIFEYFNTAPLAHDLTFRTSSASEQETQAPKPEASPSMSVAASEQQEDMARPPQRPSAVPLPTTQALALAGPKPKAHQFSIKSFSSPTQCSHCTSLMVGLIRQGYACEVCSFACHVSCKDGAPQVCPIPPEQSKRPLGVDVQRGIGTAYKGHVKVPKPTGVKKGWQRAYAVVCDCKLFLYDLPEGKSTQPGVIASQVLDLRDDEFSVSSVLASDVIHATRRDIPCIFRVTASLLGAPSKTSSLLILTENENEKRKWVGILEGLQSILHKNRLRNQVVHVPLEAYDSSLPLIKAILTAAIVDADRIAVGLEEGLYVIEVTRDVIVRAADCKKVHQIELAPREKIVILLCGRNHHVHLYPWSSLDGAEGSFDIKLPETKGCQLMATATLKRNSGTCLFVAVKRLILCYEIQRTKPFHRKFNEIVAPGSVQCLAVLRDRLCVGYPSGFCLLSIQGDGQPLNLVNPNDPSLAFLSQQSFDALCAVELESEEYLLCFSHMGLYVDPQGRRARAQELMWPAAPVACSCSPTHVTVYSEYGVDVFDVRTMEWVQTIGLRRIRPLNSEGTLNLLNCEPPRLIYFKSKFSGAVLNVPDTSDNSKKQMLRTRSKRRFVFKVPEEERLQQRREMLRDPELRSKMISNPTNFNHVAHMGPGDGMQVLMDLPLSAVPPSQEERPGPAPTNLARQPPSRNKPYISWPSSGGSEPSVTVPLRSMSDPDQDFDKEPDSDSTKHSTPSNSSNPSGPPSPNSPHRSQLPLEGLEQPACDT
# Method Description: biochemical
# Assay type: binding
# Conditions: kinase MRCKB; 1 µM; read-out: % of control at 1 µM
Value Kind: remaining activity at 1 µM
Don't forget the unit after the value.

Return reported remaining activity at 1 µM values for all items listed beneath this line.
1. Cn1c(=O)n(-c2ccc(C(C)(C)C#N)cc2)c2c3cc(-c4cnc5ccccc5c4)ccc3ncc21 [Dactolisib]
2. FC(F)c1nc2ccccc2n1-c1nc(N2CCOCC2)nc(N2CCOCC2)n1 [ZSTK474]
3. Nc1cc(C(F)(F)F)c(-c2cc(N3CCOCC3)nc(N3CCOCC3)n2)cn1 [Buparlisib]
4. COc1ncc(-c2ccc3nccc(-c4ccnnc4)c3c2)cc1NS(=O)(=O)c1ccc(F)cc1F [Omipalisib]

["86%", "80%", "100%", "100%"]

Data credit: paper PMC5564600
